- Test Details: A quantitative high throughput screen for small molecules that induce DNA re-replication in SW480 colon adenocarcinoma cells. Further: nearly all actives have a fitted effect of over 55% in size.
- Condition: Hoechst DNA content imaging, 48 h; series mostly up to 46.1 µM
In all, about 340,000 compounds went through this assay and about 6,200 (1.8%) were called active. Another 10% or so got no clear call; they are omitted. The full list was thinned out, with actives kept by preference.
Reported Endpoint: outcome

Compound: CS(=O)(=O)c1ccc(C(=O)NNC(=O)c2cccs2)cc1
Assay Value: inactive

Compound: CC1CCCCC12NC(=O)N(CC(=O)OCc1c(F)cccc1Cl)C2=O (stereo not drawn)
Assay Value: inactive

Compound: Cc1cccc(N2O[C@H]3C=CC2CCCC3)n1
Assay Value: inactive

====

- Test Details: A quantitative high throughput screen for small molecules that induce DNA re-replication in SW480 colon adenocarcinoma cells. Further: nearly all actives have a fitted effect of over 55% in size.
- Condition: Hoechst DNA content imaging, 48 h; series mostly up to 46.1 µM
Among all 340,000 compounds or so, about 6,200 (1.8%) were called active. Roughly 10% stayed inconclusive and do not appear here. The call rests on the fitted dose curve; in most records, active means well fitted activation curve with a large enough effect; inconclusive means small, poorly fitted or top-dose-only effect; inactive means no such curve, though single readings can be large or run the other way. For the sample, actives were picked, then their nearest neighbours and some compounds at random.
Hi there, use one of these labels in your reply, thanks! active, inactive

Molecule: Cc1cc(C)c(C#N)c(N2CCC(C(N)=O)CC2)n1
Assigned Label: inactive
//
Molecule: COc1ccc(CNC(=O)COC(=O)C2=Cc3ccccc3OC2)cc1
Assigned Label: inactive
//
Molecule: CCC(C)c1ccc(NC(=O)COC(=O)C2CCCC2)cc1 (centres undefined)
Assigned Label: inactive
//
Molecule: C/C(=N/OC(=O)c1c(-c2c(F)cccc2Cl)noc1C)c1cnccn1
Assigned Label: inactive
//
Molecule: O=C(NC1=CC(=O)c2ccccc2C1=O)c1ccccc1
Assigned Label: active
//
Molecule: CCn1c(C(O)c2cc(OC)ccc2OC)nc2ccccc21 (centres undefined)
Assigned Label: inactive

stdin: Please let me know the test result on file for `CCN(C(=O)COC(=O)c1ccccc1O)c1cccc2ccccc12` .
stdout: inactive

stdin: GET /call?item= `CC(C)Sc1nnc([C@H](Cc2ccccc2)NC(=O)OC(C)(C)C)o1` returns the recorded outcome of this test.
stdout: inactive

stdin: Just curious, what result did `CCC(=O)c1ccc(OCC(=O)Nc2ccc3nc(C)sc3c2)cc1` get here?
stdout: inactive

====

- Test Details: A quantitative high throughput screen for small molecules that induce DNA re-replication in SW480 colon adenocarcinoma cells. Further: nearly all actives have a fitted effect of over 55% in size.
- Condition: Hoechst DNA content imaging, 48 h; series mostly up to 46.1 µM
- Excerpt: H Molecular Libraries Probe Production Network [MLPCN] NIH Chemical Genomics Center [NCGC] […] To identify compounds that induce re-replication in normal cells, an image-based assay was used to measure DNA content of nuclei, as detected by the fluorescent DNA binding dye, Hoechst. Cell nuclei were imaged by a fluorescence scanning plate imager and compounds that induce DNA re-replication were identified by the increase of nuclei with elevated fluorescence intensity […]
Screen size: about 340,000 compounds; about 6,200 (1.8%) were called active. Another 10% or so got no clear call; they are omitted. The call rests on the fitted dose curve; in most records, active means well fitted activation curve with a large enough effect; inconclusive means small, poorly fitted or top-dose-only effect; inactive means no such curve, though single readings can be large or run the other way. This excerpt belongs to a sample that is enriched for actives.
# valid calls are active, inactive; nothing else

As a guide, the following entries are already answered.
Molecule: O=C(CN1CCN(S(=O)(=O)/C=C/c2ccccc2)CC1)NC(=O)NCc1ccco1
Assigned Label: inactive
--
Molecule: CCOC(=O)C1=CN(Cc2ccc(Br)cc2)S(=O)(=O)NC1C (configuration not stated)
Assigned Label: inactive
--
Molecule: COc1cccc(/C=N/NC(=O)c2[nH]nc3c2CCc2ccccc2-3)c1O
Assigned Label: active
--
Molecule: CC(C)(C)S(=O)(=O)N1Cc2cc(CO)cc(CCO)c2[C@H]1CCO
Assigned Label: inactive
--
Molecule: CC1(C)N=C(N)NC(Nc2ccc(Cl)cc2)=N1
Assigned Label: inactive

stdin: Record lookup: outcome of this test for `Cn1ccc(NC(=O)Nc2ccc(Cl)cc2)n1` ?
stdout: inactive

stdin: Dear all, I need the recorded test outcome for `COc1ccc(NC(=O)/C(N=Nc2cccc(S(=O)(=O)Nc3ccc(SC(F)F)cc3)c2)=C(\C)O)cc1` , thank you.
stdout: inactive

stdin: I would be grateful if you could indicate the recorded call for `COc1ccc(OC)c2c(N)c(C#N)c(C(F)(F)C(F)(F)F)nc12` .
stdout: inactive

stdin: Can you look up the reported call for `COc1ccc(/C=N/NC(=O)C2CC2)c(OC)c1OC` for me?
stdout: inactive

stdin: Record lookup: outcome of this test for COc1ccc(C(CNC(=O)c2cc(S(=O)(=O)Nc3cccc(C)c3)ccc2C)N2CCCC2)cc1 (configuration not stated) ?
stdout: inactive

stdin: What call does the record list for `CCn1nc(C(=O)NNS(=O)(=O)c2cc(/C=C/C(=O)O)cc(OC)c2OC)c2ccccc2c1=O` ?
stdout: inactive

====

- Test Details: A quantitative high throughput screen for small molecules that induce DNA re-replication in SW480 colon adenocarcinoma cells. Further: nearly all actives have a fitted effect of over 55% in size.
- Condition: Hoechst DNA content imaging, 48 h; series mostly up to 46.1 µM
In all, about 340,000 compounds went through this assay and about 6,200 (1.8%) were called active. Not shown: some 10% with an inconclusive outcome. Calls come from the whole dose curve; as a rule, active = well fitted activation curve with a large enough effect; inconclusive = small, poorly fitted or top-dose-only effect; inactive = no such curve, though single readings can be large or run the other way. Only a selection was taken, and actives are over-represented in it overall.
Allowed answers: y for active, n for inactive

Compound: CCCN(C(=O)COC(=O)CNS(=O)(=O)c1ccc(NC(C)=O)cc1)C1CCS(=O)(=O)C1 (centres undefined)
Assigned Label: n

stdin: Record request — test call for `COc1ccc(CC(=O)N[C@@H]2c3cc(OC)c(OC)cc3C[C@H]2OCc2ccccc2)cc1`
stdout: n

stdin: Answer briefly: the call reported for CCS(=O)(=O)Nc1ccc(C2=NN(S(=O)(=O)c3ccc(F)cc3)C(c3ccco3)C2)cc1 (centres undefined) in this assay.
stdout: n

stdin: Record request — test call for `COc1ccc(C)cc1NC(=O)CN1c2cccc3cccc(c23)S1(=O)=O`
stdout: n

stdin: Could you kindly confirm the outcome this assay logged for CC(C(=O)NC1CCS(=O)(=O)C1)N1C(=O)/C(=C/c2ccc(Cl)cc2)SC1=S (centres undefined) ?
stdout: n

stdin: Given Cc1ccn(CCC(=O)N2c3ccccc3CC2C)n1 (centres undefined) , state the outcome it received in this test.
stdout: n

stdin: For `Cc1ccc(N2CCN(C3=NC(=O)/C(=C\c4cccs4)S3)CC2)cc1` , which call appears in the assay record?
stdout: n

stdin: How did this test come out for Cc1ccccc1C1CC(c2cccs2)=NN1S(C)(=O)=O (centres undefined) ?
stdout: n

stdin: Call for entry `Cc1cc(C)nc(SCC(=O)N(C)C)n1` :
stdout: n

stdin: // outcome(item) with item = `Cc1sc2nc(SCCO)n(-c3ccccc3)c(=O)c2c1C`
stdout: n

====

- Test Details: A quantitative high throughput screen for small molecules that induce DNA re-replication in SW480 colon adenocarcinoma cells. Further: nearly all actives have a fitted effect of over 55% in size. Further: potency means the concentration at half of the fitted maximal effect.
- Condition: Hoechst DNA content imaging, 48 h; series mostly up to 46.1 µM
The campaign covered roughly 340,000 compounds. About 6,200 (1.8%) were called active. About 10% were inconclusive and are not listed. For the sample, actives were picked, then their nearest neighbours and some compounds at random.
Reported Endpoint: Potency

Compound: CC(C)C(=O)N1CCN(c2nc(-c3ccccc3)c3c(c2C#N)CC(C)(C)OC3)CC1
Assay Value: inactive

Compound: Cc1ccc(S(=O)(=O)N2CCN(C(=O)COC(=O)CNC(=O)c3ccc(C(C)(C)C)cc3)CC2)c(C)c1
Assay Value: inactive

Compound: COc1ccc(CCC(=O)Nc2ccc(Cl)c(S(=O)(=O)N3CCOCC3)c2)cc1OC
Assay Value: inactive

Compound: CC/C(=C(/c1ccccc1)c1ccc(OCC[N+](C)(C)C)cc1)c1ccccc1
Assay Value: inactive

Compound: CC1(C)Cc2c(C#N)c(SCc3nc4ccccc4[nH]3)nc(N3CCOCC3)c2CO1
Assay Value: 12.6 µM (active)

stdin: Provide measured Potency value, entry: `COc1ccc(C(=O)N[C@H](C(=O)NCc2ccccc2)C(C)C)cc1`
stdout: inactive

stdin: Specify measured Potency for CC(CN1CCC(n2nccc2NC(=O)C2CCCC2)CC1)c1ccccc1 (stereo not given) .
stdout: inactive

====

- Test Details: A quantitative high throughput screen for small molecules that induce DNA re-replication in SW480 colon adenocarcinoma cells. Further: nearly all actives have a fitted effect of over 55% in size.
- Condition: Hoechst DNA content imaging, 48 h; series mostly up to 46.1 µM
Hit rate of the full screen: of about 340,000 compounds, about 6,200 (1.8%) were called active. About 10% were inconclusive and are not listed. Calls follow the shape of the dose curve; as a rule, active = well fitted activation curve with a large enough effect; inconclusive = small, poorly fitted or top-dose-only effect; inactive = no such curve, though single readings can be large or run the other way. This excerpt belongs to a sample that is enriched for actives.
Your reply should match one of these outcome classes. 1 (active), 0 (inactive)

Smiles Input: CCOc1ccccc1N1CCN(C(=O)c2ccc3[nH]c(C)c(C)c3c2)CC1
Assigned Label: 1
--
Smiles Input: Nc1cc2c(cc1Br)-c1ccc(F)cc1C2=O
Assigned Label: 0
--
Smiles Input: COc1ccc(/C=C/C(=O)OCC(=O)N2CCN(S(=O)(=O)c3ccc(C)cc3C)CC2)cc1OC
Assigned Label: 0

stdin: Kindly provide the recorded test outcome for the following compound: `CN(C)c1nc(NN)nc(Nc2ccc(F)cc2)n1`
stdout: 0
